List of solubility values.
Experiment: Aqueous solubility of the compound
Type: physicochemical
Settings: water (aqueous)
attribute_measured: solubility (mg/mL)

Nc1ccc(C(=O)N[C@H](Cc2ccccc2)C(=O)[O-])c(O)c1.[Na+] 330
Nc1ccc(C(=O)N[C@@H](Cc2c[nH]c3ccccc23)C(=O)[O-])c(O)c1.[Na+] 260

---

Experiment: Stability assessed as half life in hydrochloric acid buffer at pH 1.2
Assay type: physicochemical
attribute_measured: half-life

Nc1ccc(C(=O)N[C@@H](Cc2c[nH]c3ccccc23)C(=O)[O-])c(O)c1.[Na+] > 10 h
Nc1ccc(C(=O)N[C@H](Cc2ccccc2)C(=O)[O-])c(O)c1.[Na+] > 10 h

---

Test: Stability assessed as half life in phosphate buffer at pH 7.4
Type: physicochemical
List of half-life values.
attribute_measured: half-life

Nc1ccc(C(=O)N[C@@H](Cc2c[nH]c3ccccc23)C(=O)[O-])c(O)c1.[Na+] > 10 h
Nc1ccc(C(=O)N[C@H](Cc2ccccc2)C(=O)[O-])c(O)c1.[Na+] > 10 h

---

Experiment: Partition coefficient, log p in n-octanol/phosphate buffer at pH 7.4
Format: physicochemical
attribute_measured: logD

Nc1ccc(C(=O)N[C@H](Cc2ccccc2)C(=O)[O-])c(O)c1.[Na+] -0.21
Nc1ccc(C(=O)O)c(O)c1 1.01
Nc1ccc(C(=O)N[C@@H](Cc2c[nH]c3ccccc23)C(=O)[O-])c(O)c1.[Na+] -0.19
